Origin of the recorded values: ChEMBL document CHEMBL4049407

Listed compounds paired with reported Ratio Ki
# Species on record: Homo sapiens
# Experiment notes: Selectivity index, ratio of Ki for recombinant human furin expressed in drosophila S2 cells to Ki for recombinant human PACE4 expressed in drosophila S2 cells
# Type: cell-based
Peptide text beside a SMILES is read from it. * marks the point of attachment. NH(4-amidinobenzyl) = N=C(N)c1ccc(CN*)cc1
Endpoint: Ratio Ki

>>> recorded_result("CC[C@H](C)[C@H](NC(=O)[C@H](CC(C)C)NC(=O)[C@@H](CC(C)C)NC(C)=O)C(=O)N[C@H](C(=O)N[C@@H](CCCNC(=N)N)C(=O)N[C@H](C(=O)N[C@@H](CCCCN)C(=O)NCc1ccc(C(=N)N)cc1)C(C)C)[C@@H](C)CC")
0.8
>>> recorded_result("CC(=O)N[C@@H](CCCNC(=N)N)C(=O)N[C@@H](CC(C)C)C(=O)N[C@@H](CC(C)C)C(=O)N[C@@H](CC(C)C)C(=O)N[C@@H](CCCNC(=N)N)C(=O)N[C@H](C(=O)N[C@@H](CCCCN)C(=O)NCc1ccc(C(=N)N)cc1)C(C)C (Ac-RLLLRVK-{NH(4-amidinobenzyl)})")
1.8
>>> recorded_result("CC(=O)N[C@@H](CC(C)C)C(=O)N[C@@H](Cc1c[nH]c2ccccc12)C(=O)N[C@@H](CC(C)C)C(=O)N[C@@H](CC(C)C)C(=O)N[C@@H](CCCNC(=N)N)C(=O)N[C@H](C(=O)N[C@@H](CCCCN)C(=O)NCc1ccc(C(=N)N)cc1)C(C)C (Ac-LWLLRVK-{NH(4-amidinobenzyl)})")
1.6
>>> recorded_result("CSCC[C@H](NC(=O)[C@H](CC(C)C)NC(C)=O)C(=O)N[C@@H](CC(C)C)C(=O)N[C@@H](CC(C)C)C(=O)N[C@@H](CCCNC(=N)N)C(=O)N[C@H](C(=O)N[C@@H](CCCCN)C(=O)NCc1ccc(C(=N)N)cc1)C(C)C (Ac-LMLLRVK-{NH(4-amidinobenzyl)})")
0.6
>>> recorded_result("CSCC[C@H](NC(=O)[C@H](CC(C)C)NC(=O)[C@H](CC(C)C)NC(C)=O)C(=O)N[C@@H](CC(C)C)C(=O)N[C@@H](CCCNC(=N)N)C(=O)N[C@H](C(=O)N[C@@H](CCCCN)C(=O)NCc1ccc(C(=N)N)cc1)C(C)C (Ac-LLMLRVK-{NH(4-amidinobenzyl)})")
0.6
>>> recorded_result("CSCC[C@H](NC(C)=O)C(=O)N[C@@H](CC(C)C)C(=O)N[C@@H](CC(C)C)C(=O)N[C@@H](CC(C)C)C(=O)N[C@@H](CCCNC(=N)N)C(=O)N[C@H](C(=O)N[C@@H](CCCCN)C(=O)NCc1ccc(C(=N)N)cc1)C(C)C (Ac-MLLLRVK-{NH(4-amidinobenzyl)})")
1
>>> recorded_result("CC(=O)N[C@@H](Cc1c[nH]c2ccccc12)C(=O)N[C@@H](CC(C)C)C(=O)N[C@@H](CC(C)C)C(=O)N[C@@H](CC(C)C)C(=O)N[C@@H](CCCNC(=N)N)C(=O)N[C@H](C(=O)N[C@@H](CCCCN)C(=O)NCc1ccc(C(=N)N)cc1)C(C)C (Ac-WLLLRVK-{NH(4-amidinobenzyl)})")
0.7
>>> recorded_result("CC(=O)N[C@@H](CC(C)C)C(=O)N[C@@H](CC(C)C)C(=O)N[C@@H](CC(C)C)C(=O)N[C@@H](C)C(=O)N[C@@H](CCCNC(=N)N)C(=O)N[C@H](C(=O)N[C@@H](CCCCN)C(=O)NCc1ccc(C(=N)N)cc1)C(C)C (Ac-LLLARVK-{NH(4-amidinobenzyl)})")
1.3
>>> recorded_result("CC(=O)N[C@@H](CC(C)C)C(=O)N[C@@H](C)C(=O)N[C@@H](CC(C)C)C(=O)N[C@@H](CC(C)C)C(=O)N[C@@H](CCCNC(=N)N)C(=O)N[C@H](C(=O)N[C@@H](CCCCN)C(=O)NCc1ccc(C(=N)N)cc1)C(C)C (Ac-LALLRVK-{NH(4-amidinobenzyl)})")
0.8
>>> recorded_result("CC(=O)N[C@@H](CC(C)C)C(=O)N[C@H](C(=O)N[C@@H](CC(C)C)C(=O)N[C@@H](CC(C)C)C(=O)N[C@@H](CCCNC(=N)N)C(=O)N[C@H](C(=O)N[C@@H](CCCCN)C(=O)NCc1ccc(C(=N)N)cc1)C(C)C)C(C)C (Ac-LVLLRVK-{NH(4-amidinobenzyl)})")
1
>>> recorded_result("CC(=O)N[C@@H](CC(C)C)C(=O)N[C@@H](CC(C)C)C(=O)N[C@@H](CC(C)C)C(=O)NCC(=O)N[C@@H](CCCNC(=N)N)C(=O)N[C@H](C(=O)N[C@@H](CCCCN)C(=O)NCc1ccc(C(=N)N)cc1)C(C)C (Ac-LLLGRVK-{NH(4-amidinobenzyl)})")
0.7
>>> recorded_result("CC(=O)N[C@@H](CC(C)C)C(=O)N[C@@H](CC(C)C)C(=O)N[C@@H](CCCCN)C(=O)N[C@@H](CC(C)C)C(=O)N[C@@H](CCCNC(=N)N)C(=O)N[C@H](C(=O)N[C@@H](CCCCN)C(=O)NCc1ccc(C(=N)N)cc1)C(C)C (Ac-LLKLRVK-{NH(4-amidinobenzyl)})")
1.8
>>> recorded_result("CC(=O)N[C@@H](CC(C)C)C(=O)N[C@@H](CC(C)C)C(=O)N[C@@H](CC(C)C)C(=O)N[C@@H](CO)C(=O)N[C@@H](CCCNC(=N)N)C(=O)N[C@H](C(=O)N[C@@H](CCCCN)C(=O)NCc1ccc(C(=N)N)cc1)C(C)C (Ac-LLLSRVK-{NH(4-amidinobenzyl)})")
2
>>> recorded_result("CC(=O)N[C@@H](CC(C)C)C(=O)N[C@H](C(=O)N[C@@H](CC(C)C)C(=O)N[C@@H](CC(C)C)C(=O)N[C@@H](CCCNC(=N)N)C(=O)N[C@H](C(=O)N[C@@H](CCCCN)C(=O)NCc1ccc(C(=N)N)cc1)C(C)C)[C@@H](C)O (Ac-LTLLRVK-{NH(4-amidinobenzyl)})")
1.7
